# ASSAY_EXPLANATION: Pharmacokinetic profiles of patients on the extended dosing regimen (plasma, LCMS/MS, day 15)
# Type: in vivo
# REPORTED_CONDITIONS: human, plasma, po, 25 mg, 25 mg BID oral, day 15, N=2; harmonic mean and pseudo standard deviation; read-out: t1/2 (converted)
PROPERTY_NAME: half-life

Prompt: Name the recorded half-life of the item COc1ccc(S(=O)(=O)Nc2cccnc2Nc2ccc(O)cc2)cc1 in your answer.
Response: 3.8 h

---

# ASSAY_EXPLANATION: Pharmacokinetic profiles of patients on the extended dosing regimen (plasma, LCMS/MS, day 15)
# Type: in vivo
# REPORTED_CONDITIONS: human, plasma, po, 50 mg, 50 mg QD oral, day 15, N=3; harmonic mean and pseudo standard deviation; read-out: t1/2 (converted)
PROPERTY_NAME: half-life
The reply must contain the numeric value and, after it, the unit.

Prompt: Name the recorded half-life of the item COc1ccc(S(=O)(=O)Nc2cccnc2Nc2ccc(O)cc2)cc1 in your answer.
Response: 276 min

---

# ASSAY_EXPLANATION: Pharmacokinetic profiles of patients on the extended dosing regimen (plasma, LCMS/MS, day 15)
# Format: in vivo
# REPORTED_CONDITIONS: human, plasma, po, oral dosing, all regimens; read-out: overall mean t1/2 (converted)
PROPERTY_NAME: half-life (h)
# value in h; strip the unit string

Prompt: Name the recorded half-life of the item COc1ccc(S(=O)(=O)Nc2cccnc2Nc2ccc(O)cc2)cc1 in your answer.
Response: 6

---

# ASSAY_EXPLANATION: Pharmacokinetic profiles of patients on the extended dosing regimen (plasma, LCMS/MS, day 15)
# Assay type: in vivo
# REPORTED_CONDITIONS: human, plasma, po, 50 mg, 50 mg QD oral, day 15, N=3; AUC0-24
PROPERTY_NAME: AUC (ng·h/mL)
# value in ng·h/mL; strip the unit string

Prompt: Name the recorded AUC of the item COc1ccc(S(=O)(=O)Nc2cccnc2Nc2ccc(O)cc2)cc1 in your answer.
Response: 20400

---

# ASSAY_EXPLANATION: Pharmacokinetic profiles of patients on the extended dosing regimen (plasma, LCMS/MS, day 15)
# Assay type: in vivo
# REPORTED_CONDITIONS: human, plasma, po, 25 mg, 25 mg BID oral, day 15, plasma, N=2; read-out: Cmin
PROPERTY_NAME: concentration at 15 day (ng/mL)
# value in ng/mL; strip the unit string

Prompt: Name the recorded concentration at 15 day of the item COc1ccc(S(=O)(=O)Nc2cccnc2Nc2ccc(O)cc2)cc1 in your answer.
Response: 300

---

# ASSAY_EXPLANATION: Pharmacokinetic profiles of patients on the extended dosing regimen (plasma, LCMS/MS, day 15)
# Format: in vivo
# REPORTED_CONDITIONS: human, plasma, po, 25 mg, 25 mg QD oral, day 15, N=4; AUC0-24
# Experimental: A total of 43 patients were enrolled in the study. […] In evaluating the pharmacokinetic profiles of the patients, plasma samples were collected pre-dose and over 6 hours following dosing on day 15. Plasma concentrations of N-[2-[(4-hydroxyphenyl)amino]-3-pyridyl]-4-methoxybenzenesulfonamide were determined by a validated LCMS/MS assay. […]
PROPERTY_NAME: AUC (ng·h/mL)
# value in ng·h/mL; strip the unit string

Prompt: Name the recorded AUC of the item COc1ccc(S(=O)(=O)Nc2cccnc2Nc2ccc(O)cc2)cc1 in your answer.
Response: 9000

---

# ASSAY_EXPLANATION: Pharmacokinetic profiles of patients on the extended dosing regimen (plasma, LCMS/MS, day 15)
# Assay type: in vivo
# REPORTED_CONDITIONS: human, plasma, po, 50 mg, 50 mg QD oral, day 15, plasma, N=3; read-out: Cmin
PROPERTY_NAME: concentration at 15 day (ng/mL)
# value in ng/mL; strip the unit string

Prompt: Name the recorded concentration at 15 day of the item COc1ccc(S(=O)(=O)Nc2cccnc2Nc2ccc(O)cc2)cc1 in your answer.
Response: 100

---

# ASSAY_EXPLANATION: Pharmacokinetic profiles of patients on the extended dosing regimen (plasma, LCMS/MS, day 15)
# Type: in vivo
# REPORTED_CONDITIONS: human, plasma, po, 25 mg, 25 mg BID oral, day 15, plasma, N=2
PROPERTY_NAME: Cmax (ng/mL)
# value in ng/mL; strip the unit string

Prompt: Name the recorded Cmax of the item COc1ccc(S(=O)(=O)Nc2cccnc2Nc2ccc(O)cc2)cc1 in your answer.
Response: 2000

---

# ASSAY_EXPLANATION: Pharmacokinetic profiles of patients on the extended dosing regimen (plasma, LCMS/MS, day 15)
# Assay type: in vivo
# REPORTED_CONDITIONS: human, plasma, po, 100 mg, 100 mg QD oral, day 15, N=3; harmonic mean and pseudo standard deviation; read-out: t1/2 (converted)
PROPERTY_NAME: half-life (h)
# value in h; strip the unit string

Prompt: Name the recorded half-life of the item COc1ccc(S(=O)(=O)Nc2cccnc2Nc2ccc(O)cc2)cc1 in your answer.
Response: 5.8

---

# ASSAY_EXPLANATION: Pharmacokinetic profiles of patients on the extended dosing regimen (plasma, LCMS/MS, day 15)
# Type: in vivo
# REPORTED_CONDITIONS: human, plasma, po, 75 mg, 75 mg BID oral, day 15, N=3; harmonic mean and pseudo standard deviation; read-out: t1/2 (converted)
PROPERTY_NAME: half-life (h)
# value in h; strip the unit string

Prompt: Name the recorded half-life of the item COc1ccc(S(=O)(=O)Nc2cccnc2Nc2ccc(O)cc2)cc1 in your answer.
Response: 5.3

---

# ASSAY_EXPLANATION: Pharmacokinetic profiles of patients on the extended dosing regimen (plasma, LCMS/MS, day 15)
# Type: in vivo
# REPORTED_CONDITIONS: human, plasma, po, 50 mg, 50 mg BID oral, day 15, plasma, N=2; read-out: Tmax
PROPERTY_NAME: Tmax
The reply must contain the numeric value and, after it, the unit.

Prompt: Name the recorded Tmax of the item COc1ccc(S(=O)(=O)Nc2cccnc2Nc2ccc(O)cc2)cc1 in your answer.
Response: 30 min

---

# ASSAY_EXPLANATION: Pharmacokinetic profiles of patients on the extended dosing regimen (plasma, LCMS/MS, day 15)
# Assay type: in vivo
# REPORTED_CONDITIONS: human, plasma, po, 50 mg, 50 mg BID oral, day 15, plasma, N=2
PROPERTY_NAME: Cmax (ng/mL)
# value in ng/mL; strip the unit string

Prompt: Name the recorded Cmax of the item COc1ccc(S(=O)(=O)Nc2cccnc2Nc2ccc(O)cc2)cc1 in your answer.
Response: 5000

---

# ASSAY_EXPLANATION: Pharmacokinetic profiles of patients on the extended dosing regimen (plasma, LCMS/MS, day 15)
# Type: in vivo
# REPORTED_CONDITIONS: human, plasma, po, 150 mg, 150 mg QD oral, day 15, plasma, N=3; read-out: Tmax
PROPERTY_NAME: Tmax (h)
# value in h; strip the unit string

Prompt: Name the recorded Tmax of the item COc1ccc(S(=O)(=O)Nc2cccnc2Nc2ccc(O)cc2)cc1 in your answer.
Response: 1.2

---

# ASSAY_EXPLANATION: Pharmacokinetic profiles of patients on the extended dosing regimen (plasma, LCMS/MS, day 15)
# Assay type: in vivo
# REPORTED_CONDITIONS: human, plasma, po, 50 mg, 50 mg QD oral, day 15, plasma, N=3
PROPERTY_NAME: Cmax (ng/mL)
# value in ng/mL; strip the unit string

Prompt: Name the recorded Cmax of the item COc1ccc(S(=O)(=O)Nc2cccnc2Nc2ccc(O)cc2)cc1 in your answer.
Response: 3500

---

# ASSAY_EXPLANATION: Pharmacokinetic profiles of patients on the extended dosing regimen (plasma, LCMS/MS, day 15)
# Assay type: in vivo
# REPORTED_CONDITIONS: human, plasma, po, 25 mg, 25 mg QD oral, day 15, plasma, N=4; read-out: Tmax
PROPERTY_NAME: Tmax (h)
# value in h; strip the unit string

Prompt: Name the recorded Tmax of the item COc1ccc(S(=O)(=O)Nc2cccnc2Nc2ccc(O)cc2)cc1 in your answer.
Response: 1.3

---

# ASSAY_EXPLANATION: Pharmacokinetic profiles of patients on the extended dosing regimen (plasma, LCMS/MS, day 15)
# Assay type: in vivo
# REPORTED_CONDITIONS: human, plasma, po, 50 mg, 50 mg BID oral, day 15, plasma, N=2; read-out: Cmin
PROPERTY_NAME: concentration at 15 day (ng/mL)
# value in ng/mL; strip the unit string

Prompt: Name the recorded concentration at 15 day of the item COc1ccc(S(=O)(=O)Nc2cccnc2Nc2ccc(O)cc2)cc1 in your answer.
Response: 400

---

# ASSAY_EXPLANATION: Pharmacokinetic profiles of patients on the extended dosing regimen (plasma, LCMS/MS, day 15)
# Assay type: in vivo
# REPORTED_CONDITIONS: human, plasma, po, 50 mg, 50 mg QD oral, day 15, plasma, N=3; read-out: Tmax
PROPERTY_NAME: Tmax (h)
# value in h; strip the unit string

Prompt: Name the recorded Tmax of the item COc1ccc(S(=O)(=O)Nc2cccnc2Nc2ccc(O)cc2)cc1 in your answer.
Response: 1.7
